System: UACC-257 melanoma
Experiment: NCI-60 one-dose screen, 48 h (100 = growth as untreated, 0 = no growth, -100 = all killed)
Conditions: 10 µM unless noted
The panel holds about 83,000 compounds, 20% with a hit somewhere; the sample as a whole holds those more often. Activity calls are given as the source filed them. How the source made its calls: active means growth percent below 10; inactive means the rest.
Form field: growth (one value per entry).

Which growth value belongs to `O=C(N/N=C/c1ccc(Cl)cc1Cl)c1ccccc1Nc1cccc(C(F)(F)F)c1` ?
83.6% (inactive)

Which growth value belongs to `O=C(Nc1nn2c(-c3cc(C(F)(F)F)cc(C(F)(F)F)c3)nnc2s1)C1CCCC1` ?
4.69% (active)

Which growth value belongs to `CCOC(=O)CNC(=O)C1(NC(=O)CNC(=O)OCc2ccccc2)CCCC1` ?
110% (inactive)

Which growth value belongs to `COc1ccc(/C=C2/SC(=Nc3c(C)nn(-c4ccccc4)c3N)NC2=O)cc1` ?
59% (inactive)

Which growth value belongs to `O=C(C(=O)c1cc(Br)ccc1O)c1cc(Br)ccc1O` ?
43.1% (inactive)

Which growth value belongs to `COc1ccc(C(=O)COc2cccc(/C=C3\CSc4ccc(Cl)cc4C3=O)c2)cc1` ?
89.3% (inactive)

Which growth value belongs to `COc1ccc(Oc2ccccc2NC(=O)CNC(=O)c2cccc3ccccc23)cc1` ?
48.6% [5 µM] (inactive)

Which growth value belongs to `CCOC(=O)C(C(=O)OCC)C1CCCCC1` ?
96.3% (inactive)

Which growth value belongs to `Clc1ccc2[nH]cc(-c3cncn3CCc3ccccc3)c2c1` ?
50.2% (inactive)

Which growth value belongs to `Cc1cc(-c2ccccc2)cc(C)n1` ?
108% (inactive)

* * *

Tested on: SK-OV-3 ovarian
Assay: NCI-60 one-dose screen, 48 h (100 = growth as untreated, 0 = no growth, -100 = all killed)
Conditions: 10 µM unless noted
Compounds without any hit were thinned out: in the full panel of roughly 83,000, 20% have a hit.
recorded metric: growth (%)
Answer format: numeric, % implied, no suffix.

compound	target or system	growth, %
O=C(C(=O)c1cc(Br)ccc1O)c1cc(Br)ccc1O	SK-OV-3 ovarian	79.6
CCCCOP(=O)(OCCCC)C(C(=O)OCC)C(CC(=O)OCC)C(=O)OCC (centres undefined)	SK-OV-3 ovarian	105

Which growth value belongs to `O=C(Nc1ccc2c(c1)C(=O)c1ccccc1-2)c1ccccc1` ?
110

Which growth value belongs to `O=C(O)CCNS(=O)(=O)c1ccc(-c2ccccc2)cc1` ?
107

* * *

System: M14 melanoma
Test: NCI-60 one-dose screen, 48 h
Details: 10 µM unless noted
Procedure: Growth inhibition of the M14 human tumor cell line is measured as a screen for anti-cancer activity. Cells are grown in 96 well plates and exposed to the test compound for 48 hours. Compounds are tested at a single concentration, which is 10^-5 M for most compounds. The reported endpoint is percent growth (GI% or GIPRCNT), where numbers from 0 - 100% represent growth inhibition, and numbers from -100% - 0 represent cell death. For example, a value of 40 represents 60% growth inhibition. […]
About 83,000 compounds went through this panel and 20% of them were active in at least one assay; those are over-represented in the sample as a whole. Active and inactive are the calls of the source. Rule for the calls: active = growth percent below 10; inactive = the rest.
I would appreciate it if you answered using one of these outcomes: 1 (yes) (active), 0 (no) (inactive)

As a guide, the following entries are already answered.
molecule	assigned label
COc1cccc(/C=N\NC(=O)c2ccncc2)c1O	0 (no)
COc1cc2c(cc1OC)C(CC1(O)CCCCC1)N(S(=O)(=O)c1ccc(C)cc1)CC2 (stereo not given)	0 (no)
CCN(CC)c1ccc(C(=C2C=CC(=[N+](CC)Cc3cccc(S(=O)(=O)O)c3)C=C2)c2ccc(N(CC)Cc3cccc(S(=O)(=O)O)c3)cc2)cc1	0 (no)
O=C1N=C(N2CCOCC2)S/C1=C\c1cn(-c2ccccc2)nc1-c1ccccc1	0 (no)
CCCCCc1c(C)[nH]c(/C=C2\N=C(c3ccc[nH]3)C=C2Oc2ccccc2)c1C	1 (yes)

Call for entry C/C(=C\CCc1ccoc1)CC/C=C(\C)CCCC1COC(=O)C1 (stereo not given) :
0 (no)

Call for entry `c1ccc(Nc2ccc(Nc3nc(-c4ccccc4)nc4ccccc34)cc2)cc1` :
0 (no)

Call for entry `COc1ccc(-c2nnc3c4[nH]cnc4ncn23)c(OC)c1` :
0 (no)

Call for entry `O=C(Nc1ccccc1OC(=O)c1ccccc1)c1ccccc1` :
0 (no)

Call for entry `Nc1ccc2c(c1Br)Cc1ccccc1-2` :
0 (no)

Call for entry `O=C(CNC(=O)c1cccc2ccccc12)Nc1ccccc1Cc1ccccc1` :
0 (no)

Call for entry `COc1ccc(C(=O)/C=C/c2cccc(Nc3ccnc4cc(Cl)ccc34)c2)cc1` :
0 (no)

Call for entry CC(=O)N1N=C(c2ccc(Nc3ccnc4cc(Cl)ccc34)cc2)CC1c1ccc(Cl)cc1 (stereo not given) :
0 (no)

* * *

System: KM12 colon
Experiment: NCI-60 one-dose screen, 48 h
Conditions: 10 µM unless noted
Compounds without any hit were thinned out: in the full panel of roughly 83,000, 20% have a hit. Activity calls are given as the source filed them. How the source made its calls: active means growth percent below 10; inactive means the rest.
I would appreciate it if you answered using one of these outcomes: active, inactive

As a guide, the following entries are already answered.
molecule	assigned label
Nc1ccn(C2O[C@H](CO)[C@@H](O)[C@@H]2O)c(=O)n1 (stereo not given in full)	inactive
O=C(/C=C/c1ccc(C(F)(F)F)cc1)c1ccc(Nc2nc(NCCO)nc(NCCO)n2)cc1	inactive
Nc1nc(SCc2cccnc2)c2ncn(C3OC(CO)C(O)C3O)c2n1 (stereo not given)	inactive
O=C1NC(=S)S/C1=C\c1cc(Br)ccc1O	inactive
CCOc1cc(CCNS(=O)(=O)c2ccc(C)cc2)c(C(C)=O)cc1OCC	inactive
COc1ccc(-c2ccc(O)c(C(=O)/C=C/c3cc(OC)c(OC)c(OC)c3)c2)cc1	inactive
COc1ccc(-c2cnc(SCC(=O)Nc3ccc(-c4nc5ccccc5s4)cc3)n2-c2ccc(OC)cc2)cc1	inactive
O=C1C(=O)c2c(nc3ccc(Cl)cn23)-c2ccccc21	active
COc1cccc2c1C(=O)c1c(O)c3c(c(O)c1C2=O)C[C@@](O)(C(C)=O)C[C@@H]3O[C@H]1C[C@H](N)[C@H](O)[C@H](C)O1	active
N#Cc1c(-c2ccccc2)cc(-c2ccccc2)n(CCCCCCC(=O)O)c1=O	inactive

Call for entry COc1ccc(C2=NN(C(C)=O)C(c3cccc(Nc4ccnc5cc(Cl)ccc45)c3)C2)cc1 (stereo not given) :
inactive

Call for entry COc1ccc(C2CC(c3ccc4c(c3)OCO4)=NN2C=O)cc1 (stereo not given) :
inactive

Call for entry `Cc1ccc2nc(-c3ccc(N(C)C)c(Br)c3)cn2c1` :
inactive

Call for entry `O=C(Nc1ccc(Cl)cc1)Nc1ccccc1CNc1nc(Nc2ccc(OCCN3CCCC3)cc2)ncc1Cl` :
inactive

Call for entry `c1ccc2nc(Cn3c[n+](Cc4ccc5ccccc5n4)c4ccccc43)ccc2c1` :
inactive

Call for entry `Cc1cc(-c2ccccc2)cc(C)n1` :
inactive

Call for entry `O=Nc1c2cccnc2n2nnc3ccc(Cl)cc3c12` :
inactive

Call for entry `CN1CCN(CCCOc2ccc3ncnc(Nc4ccc(OCc5cccc(F)c5)c(Cl)c4)c3c2)CC1` :
active

Call for entry `COc1ccc2nc(N/N=C(\C)c3ccccn3)cc(C)c2c1` :
active

Call for entry `Cc1cc(Cl)ccc1Nc1nc(C(F)(F)F)ccc1C(=O)N/N=C/c1ccc(Cl)cc1` :
active

Call for entry `c1cc[n+](Cc2ccnc3ccccc23)cc1` :
inactive

Call for entry `O=C(/C=C/c1cccc(O)c1)c1cccc(-n2cc(-c3ccccc3)[nH]c2=O)c1` :
active

* * *

System: NCI-H322M lung
Assay: NCI-60 one-dose screen, 48 h (100 = growth as untreated, 0 = no growth, -100 = all killed)
Conditions: 10 µM unless noted
About 83,000 compounds went through this panel and 20% of them were active in at least one assay; those are over-represented in the sample as a whole. Activity calls are given as the source filed them. The calls were made as follows: active = growth percent below 10; inactive = the rest.
recorded metric: growth

compound	growth
CSc1nc2nc3c(c(-c4ccc(C)cc4)c2c(=O)[nH]1)CN(C)C/C3=C\c1ccc(C)cc1	103% (inactive)

The record that follows has no growth shown yet.
Find growth (NCI-H322M lung) for the entry `Cc1nn(-c2ccccc2)c2nc(N)c(C3=NCCO3)nc12`
89.5% (inactive)

* * *

Test system: MOLT-4 leukemia
Assay: NCI-60 one-dose screen, 48 h
Conditions: 10 µM unless noted
The panel holds about 83,000 compounds, 20% with a hit somewhere; the sample as a whole holds those more often. Calls of active or inactive are those of the source. How the source made its calls: active means growth percent below 10; inactive means the rest.
I would appreciate it if you answered using one of these outcomes: yes (1) for active, no (0) for inactive

compound	assigned label
O=C(O)C1C(c2ccccc2)c2ccccc2C(O)C1CO (centres undefined)	no (0)
CCSc1nc(-c2cccs2)n2nc(-c3ccco3)cc2n1	no (0)

Call for entry CC(C)=CCCC(C)c1ccc(C)c2c1OCN(CC1CCNCC1)C2 (centres undefined) :
no (0)

Call for entry `COc1cnc2c(c1)C(=O)c1c-2n(CCCN2CCOCC2)c(=O)c2cc(F)ccc12` :
yes (1)
